# System: TRAILR2 receptor on the surface of human tumor cells (human, UniProt O14763 56-440)
# Experimental Protocol: cell-based or functional assay
Metric: eff. (efficiency %), cytotoxic effect on Mia PaCa-2 cells
Kindly provide the numeric value in % only, without the unit symbol.

State its eff. (efficiency %), cytotoxic effect on Mia PaCa-2 cells: Zapadcine-1c (antibody, V domains shown, MMAD coupled through linker Py-MAA by thiol bridge coupling, non-cleavable; positions not given) VH: QVQLVQSGSELKKPGASVKVSCKASGYTFTDFSMNWVRQAPGQGLEWMGWINTETGEPTYADDFKGRFVFSLDTSVSTAYLQISSLKAEDTAVYYCARIDYWGQGTTVTVSS VL: DIVMTQSPLSLPVTPGEPASISCRSSQSLVHSNGNTYLHWYLQKPGQSPQLLIYKVSNRFSGVPDRFSGSGSGTDFTLKISRVEAEDVGVYYCFQSTHVPHTFGQGTKLEIKR
74

Identify measured eff. (efficiency %), cytotoxic effect on Mia PaCa-2 cells associated with Zapadcine-1d (antibody, V domains shown, MMAF coupled through linker Mc-Vc-PAB by thiol conventional coupling, cleavable; positions not given) VH: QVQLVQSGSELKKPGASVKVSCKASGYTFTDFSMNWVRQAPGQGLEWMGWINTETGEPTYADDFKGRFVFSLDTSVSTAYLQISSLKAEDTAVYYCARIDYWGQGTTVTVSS VL: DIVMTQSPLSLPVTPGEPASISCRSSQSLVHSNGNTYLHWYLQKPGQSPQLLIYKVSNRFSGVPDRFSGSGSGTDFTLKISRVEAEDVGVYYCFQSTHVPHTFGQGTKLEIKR
80

API: the following record is the query input.
For Zapadcine-1a (antibody, V domains shown, MMAD coupled through linker Py-Vc-PAB by thiol (disulfide) bridge coupling, cleavable; positions not given) VH: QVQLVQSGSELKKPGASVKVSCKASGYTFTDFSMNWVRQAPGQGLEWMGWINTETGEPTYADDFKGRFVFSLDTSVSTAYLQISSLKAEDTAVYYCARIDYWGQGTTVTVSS VL: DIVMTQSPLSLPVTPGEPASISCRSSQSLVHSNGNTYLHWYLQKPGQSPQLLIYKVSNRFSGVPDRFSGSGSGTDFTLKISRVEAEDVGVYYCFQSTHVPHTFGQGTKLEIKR , write its eff. (efficiency %), cytotoxic effect on Mia PaCa-2 cells.
88.4

Cited source: patent US20200407457A1
